# Test system: PC-3 prostate
# protocol.description: NCI-60 one-dose screen, 48 h (100 = growth as untreated, 0 = no growth, -100 = all killed)
# test.settings: 10 µM
This is part of a sample that, as a whole, favours compounds with a hit. Of some 83,000 tested, about 20% had one in any assay.
measurement.kind: growth (%)
# unit: % | format: bare number

Consider the worked cases shown below.
# molecular.string, tgt, growth [%]
measured = [
    ("Clc1ccc(Nc2ccnc(NCCCNc3ccnc4cc(Cl)ccc34)n2)cc1", "PC-3 prostate", -27.5),
    ("COc1cc(Cl)cc(-c2nn(-c3cccc(NC(=O)Nc4ccc(Cl)c(C(F)(F)F)c4)c3)cc2-c2ccncc2)c1", "PC-3 prostate", -13),
    ("ClCCOCCn1cnc2c(Cl)nc(Cl)nc21", "PC-3 prostate", 35.2),
    ("CN(C)CCCn1c(=O)c2ccccc2c2cnc3[nH]ccc3c21", "PC-3 prostate", -9.22),
]

Any idea what growth came out for O=C1/C(=C\c2ccc(Br)cc2)CN(C(=O)c2ccccc2F)C/C1=C\c1ccc(Br)cc1 on PC-3 prostate?
3.89

meta.source: PubChem BioAssay (NCI)
